# credit: patent US20260083865A1

Molecular target: PSMA-expressing C4-2 cells (Homo sapiens, UniProt Q04609)
Construct: PSMA-expressing C4-2 cells (ATCC, Cat. No. CRL-3314) were cultured in RPMI-1640; host or cells: C4-2 cells
Sequence (Q04609 whole entry): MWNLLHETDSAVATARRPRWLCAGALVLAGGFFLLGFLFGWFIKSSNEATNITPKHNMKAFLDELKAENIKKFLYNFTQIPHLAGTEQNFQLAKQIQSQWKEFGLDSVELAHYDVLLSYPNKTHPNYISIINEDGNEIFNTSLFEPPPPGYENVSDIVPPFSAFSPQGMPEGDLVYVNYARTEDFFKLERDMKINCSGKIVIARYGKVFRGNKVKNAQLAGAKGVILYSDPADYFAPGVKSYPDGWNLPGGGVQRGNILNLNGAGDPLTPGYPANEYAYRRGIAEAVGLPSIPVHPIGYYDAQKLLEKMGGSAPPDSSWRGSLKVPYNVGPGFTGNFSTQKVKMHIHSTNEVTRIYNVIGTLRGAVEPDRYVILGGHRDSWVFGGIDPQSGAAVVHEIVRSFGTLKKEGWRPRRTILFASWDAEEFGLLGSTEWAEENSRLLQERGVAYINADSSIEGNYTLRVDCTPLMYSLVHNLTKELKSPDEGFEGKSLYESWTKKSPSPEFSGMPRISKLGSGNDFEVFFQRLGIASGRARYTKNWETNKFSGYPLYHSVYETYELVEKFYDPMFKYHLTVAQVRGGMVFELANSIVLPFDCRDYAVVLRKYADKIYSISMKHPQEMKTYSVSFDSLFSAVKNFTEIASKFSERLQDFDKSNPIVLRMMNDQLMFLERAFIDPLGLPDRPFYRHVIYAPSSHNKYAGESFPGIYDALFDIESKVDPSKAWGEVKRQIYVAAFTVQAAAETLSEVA
Assay: FACS binding assay (competition with 50 nM PSM-0183)
Details: FACS binding, C4-2 cells, competition with 50 nM PSM-0183; category; read-out: pIC50 [C4-2] CAT (converted)
Numbered stars: 1 amine (or outer) side, 2 acyl side, 3 side chain; on linkers, the order of the positions; unused ones are H or OH. Bridge positions count the residues as written; N and C are the ends. Square brackets hold non-standard residues; d marks the D form. Peptide text beside a SMILES is read from it. * marks the point of attachment. DOTA = O=C(O)CN1CCN(CC(=O)O)CCN(CC(=O)*)CCN(CC(=O)O)CC1; X1 = O=C(CC1CCN([*:1])CC1)[*:2]; Tle = CC(C)(C)[C@H](N)C(=O)O; Pyridin(2-yl) = c1ccc(*)nc1; Orn = NCCC[C@H](N)C(=O)O; Aib = CC(C)(N)C(=O)O; CO = O=C([*:1])[*:2]; NHBu = CCCCN*
measurementType: IC50

- compound: "C[C@@H](O)[C@H](NC(=O)CN1CCN(CC(=O)O)CCN(CC(=O)O)CCN(CC(=O)O)CC1)C(=O)NC(C)(C)C(=O)N[C@@H](Cc1ccccc1)C(=O)N[C@H]1CSSC[C@@H](C(=O)N[C@H](C(N)=O)C(C)(C)C)NC(=O)[C@H](CC(N)=O)NC(=O)C(C)(C)NC(=O)[C@H](CCCNC(=N)N)NC(=O)[C@H](CCCCN)NC1=O [PSM-0184] ({DOTA}-T[Aib]FCKR[Aib]NC[Tle]-NH2; disulfide 4-9)"
  testResult: "< 200 nM"

Consider the additional compound presented here.
Output measured IC50 for this item: CCCCNC(=O)N[C@H](C(=O)NC(C)(C)C(=O)N[C@@H](Cc1ccccc1)C(=O)N[C@H]1CSSC[C@@H](C(=O)N[C@H](C(=O)N[C@H](C(=O)N2CCC(CC(=O)N[C@H](CCCCNC(=O)CN3CCN(CC(=O)O)CCN(CC(=O)O)CCN(CC(=O)O)CC3)C(N)=O)CC2)[C@@H](C)O)C(C)(C)C)NC(=O)[C@H](CC(N)=O)NC(=O)C(C)(C)NC(=O)[C@H](CCCNc2ccccn2)NC(=O)[C@H](CCCCN)NC1=O)[C@@H](C)O [PSM-0258] ({NHBu-CO}-T[Aib]FCK[Orn](Pyridin(2-yl))[Aib]NC[Tle]T[X1][dK](DOTA)-NH2; disulfide 4-9)
200 to 1260 nM

---

Molecular target: PSMA-expressing C4-2 cells (Homo sapiens)
Construct: PSMA-expressing C4-2 cells (ATCC, Cat. No. CRL-3314) were cultured in RPMI-1640; host or cells: C4-2 cells
Assay: FACS binding assay (competition with 50 nM PSM-0183)
Details: pIC50 category of FACS binding, C4-2 cells; read-out: pIC50 [C4-2] CAT (converted)
Numbered stars: 1 amine (or outer) side, 2 acyl side, 3 side chain; on linkers, the order of the positions; unused ones are H or OH. Bridge positions count the residues as written; N and C are the ends. Square brackets hold non-standard residues; d marks the D form. Peptide text beside a SMILES is read from it. * marks the point of attachment. DOTA = O=C(O)CN1CCN(CC(=O)O)CCN(CC(=O)*)CCN(CC(=O)O)CC1; Trp(5-Cl) = N[C@@H](Cc1c[nH]c2ccc(Cl)cc12)C(=O)O; Phe(3-Cl) = N[C@@H](Cc1cccc(Cl)c1)C(=O)O; X1 = O=C(CC1CCN([*:1])CC1)[*:2]; Cit = NC(=O)NCCC[C@H](N)C(=O)O; Tle = CC(C)(C)[C@H](N)C(=O)O; Aib = CC(C)(N)C(=O)O
measurementType: IC50

Solved cases (2 shown):
- compound: "C[C@@H](O)[C@H](NC(=O)[C@@H](NC(=O)[C@@H]1CSSC[C@H](NC(=O)[C@H](Cc2c[nH]c3ccc(Cl)cc23)NC(=O)C(C)(C)NC(=O)[C@@H](NC(=O)CC2CCN(C(=O)CN3CCN(CC(=O)O)CCN(CC(=O)O)CCN(CC(=O)O)CC3)CC2)[C@@H](C)O)C(=O)N[C@@H](CCCCN)C(=O)N[C@@H](CCCNC(N)=O)C(=O)NC(C)(C)C(=O)N[C@@H](CC(N)=O)C(=O)N1)C(C)(C)C)C(N)=O [PSM-0406] ({DOTA}-[X1]T[Aib][Trp(5-Cl)]CK[Cit][Aib]NC[Tle]T-NH2; disulfide 5-10)"
  IC50: "1260 to 3160 nM"
- compound: "CC(=O)NC(C)(C)C(=O)N[C@@H](Cc1ccccc1)C(=O)N[C@H]1CSSC[C@@H](C(=O)N[C@H](C(=O)N[C@H](C(=O)N[C@@H](CC(=O)O)C(N)=O)[C@@H](C)O)C(C)(C)C)NC(=O)[C@H](CC(N)=O)NC(=O)C(C)(C)NC(=O)[C@H](CCCNC(=N)N)NC(=O)[C@H](CCCCN)NC1=O [PSM-0442] (Ac-[Aib]FCKR[Aib]NC[Tle]TD-NH2; disulfide 3-8)"
  IC50: "< 200 nM"

// switching to the query compound
State measured IC50 of the compound CC(=O)N[C@H](C(=O)NC(C)(C)C(=O)N[C@@H](Cc1cccc(Cl)c1)C(=O)N[C@H]1CSSC[C@@H](C(=O)N[C@H](C(=O)N[C@H](C(=O)N2CCC(CC(=O)N[C@H](CCCCNC(=O)CN3CCN(CC(=O)O)CCN(CC(=O)O)CCN(CC(=O)O)CC3)C(N)=O)CC2)[C@@H](C)O)C(C)(C)C)NC(=O)[C@H](CC(N)=O)NC(=O)C(C)(C)NC(=O)[C@H](CCCNC(=N)N)NC(=O)[C@H](CCCCN)NC1=O)[C@@H](C)O [PSM-0486] (Ac-T[Aib][Phe(3-Cl)]CKR[Aib]NC[Tle]T[X1][dK](DOTA)-NH2; disulfide 4-9) with PSMA-expressing C4-2 cells (Homo sapiens).
< 200 nM

---

Target: Fc-fusion protein of human PSMA (hPSMA-Fc) (Homo sapiens, UniProt Q04609)
Construct: purchased Acro Biosystems PSA-H5264
Experiment: Surface plasmon resonance assay (Biacore T200, single cycle kinetic)
Type: binding
Conditions: pKD category for PSMA SPR activity assay, hPSMA-Fc, 25° C.; read-out: pKD CAT (converted)
Protocol: Surface plasmon resonance (SPR) studies were performed using a Biacore™ T200 SPR system. Briefly, polarized light is directed towards a gold-labeled sensor surface, and minimum intensity reflected light is detected. […] For each test compound, SPR raw data in the form of resonance units (RU) were plotted as sensorgrams using the Biacore™ T200 control software. […] The pKD value (negative decadic logarithm of dissociation constant) was calculated using Microsoft Excel.
Numbered stars: 1 amine (or outer) side, 2 acyl side, 3 side chain; on linkers, the order of the positions; unused ones are H or OH. Bridge positions count the residues as written; N and C are the ends. Square brackets hold non-standard residues; d marks the D form. Peptide text beside a SMILES is read from it. * marks the point of attachment. DOTA = O=C(O)CN1CCN(CC(=O)O)CCN(CC(=O)*)CCN(CC(=O)O)CC1; Phe(4-Cl) = N[C@@H](Cc1ccc(Cl)cc1)C(=O)O; Isobutyryl(2-OH) = CC(C)(O)C(=O)*; X1 = O=C(CC1CCN([*:1])CC1)[*:2]; Tle = CC(C)(C)[C@H](N)C(=O)O; Aib = CC(C)(N)C(=O)O; βAla = NCCC(=O)O
measurementType: Kd

# example entries with known answers
- molecule: "C[C@@H](O)[C@H](NC(=O)[C@@H](NC(=O)[C@@H]1CSSC[C@H](NC(=O)[C@H](Cc2ccc(Cl)cc2)NC(=O)C(C)(C)O)C(=O)N[C@@H](CCCCN)C(=O)N[C@@H](CCCNC(=N)N)C(=O)NC(C)(C)C(=O)N[C@@H](CC(N)=O)C(=O)N1)C(C)(C)C)C(N)=O [PSM-0461] ({Isobutyryl(2-OH)}-[Phe(4-Cl)]CKR[Aib]NC[Tle]T-NH2; disulfide 2-7)"
  Kd: "12.6 to 126 nM"
- molecule: "CC(=O)N[C@H](C(=O)NC(C)(C)C(=O)N[C@@H](Cc1ccccc1)C(=O)N[C@H]1CSSC[C@@H](C(=O)N[C@H](C(=O)N[C@H](C(=O)N[C@@H](CC(=O)O)C(N)=O)[C@@H](C)O)C(C)(C)C)NC(=O)[C@H](CC(N)=O)NC(=O)C(C)(C)NC(=O)[C@H](CCCNC(=N)N)NC(=O)[C@H](CCCCN)NC1=O)[C@@H](C)O [PSM-0374] (Ac-T[Aib]FCKR[Aib]NC[Tle]TD-NH2; disulfide 4-9)"
  Kd: "< 12.6 nM"

Next, consider the following molecule.
Please report Kd for the following molecule: C[C@@H](O)[C@H](NC(=O)CC1CCN(C(=O)CN2CCN(CC(=O)O)CCN(CC(=O)O)CCN(CC(=O)O)CC2)CC1)C(=O)NC(C)(C)C(=O)N[C@@H](Cc1ccccc1)C(=O)N[C@H]1CSSC[C@@H](C(=O)N[C@H](C(=O)NCCC(N)=O)C(C)(C)C)NC(=O)[C@H](CC(N)=O)NC(=O)C(C)(C)NC(=O)[C@H](CCCNC(=N)N)NC(=O)[C@H](CCCCN)NC1=O [PSM-0449] ({DOTA}-[X1]T[Aib]FCKR[Aib]NC[Tle][βAla]-NH2; disulfide 5-10)
< 12.6 nM
